These entries and their values trace back to patent US8969343B2.

Target: JMJD2C (Homo sapiens, UniProt Q9H3R0)
Sequence (Q9H3R0 2-372): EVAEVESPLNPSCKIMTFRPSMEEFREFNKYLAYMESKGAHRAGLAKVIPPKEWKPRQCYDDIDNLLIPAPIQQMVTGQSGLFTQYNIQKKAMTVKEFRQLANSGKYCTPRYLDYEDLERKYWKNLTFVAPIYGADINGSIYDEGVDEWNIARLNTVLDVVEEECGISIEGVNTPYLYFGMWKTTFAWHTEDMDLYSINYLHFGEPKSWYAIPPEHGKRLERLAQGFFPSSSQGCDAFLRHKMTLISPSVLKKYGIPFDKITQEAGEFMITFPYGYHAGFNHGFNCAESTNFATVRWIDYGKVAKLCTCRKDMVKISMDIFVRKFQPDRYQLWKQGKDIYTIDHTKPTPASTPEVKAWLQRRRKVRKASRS
Counter-ions that a name gives are not always drawn.
Quick reference for IC50 among some molecules

Solved cases below.
{"Molecule": "O=C(O)c1ccncc1Nc1nn(CCC2CC2)c2ccc(F)cc12 [Example 31]", "IC50": "0.1 to 1 µM"}
{"Molecule": "COc1ccc2c(Nc3cnccc3C(=O)O)nn(C)c2c1 [Example 8]", "IC50": "0.1 to 1 µM"}
{"Molecule": "CN(C)CCCCCn1nc(Nc2cnccc2C(=O)O)c2cc(F)ccc21 [Example 22]", "IC50": "0.1 to 1 µM"}

Exam item: I have this molecule here, CCCn1cc(Nc2cnccc2C(=O)O)c2cc(F)ccc21 [Example 57] , and I need its recorded IC50.
Marked response: 0.1 to 1 µM

Exam item: O=C(O)c1ccncc1Nc1nn(Cc2ccccc2)c2ccc(F)cc12 [Example 24] ?
Marked response: 0.1 to 1 µM

Exam item: N#CNC(=O)c1ccncc1Nc1nn(CCN2CCC(F)(F)C2)c2ccc(F)cc12 [Example 72] ?
Marked response: 1 to 10 µM

Exam item: O=C(O)c1ccncc1Nc1nn(C2CCCOC2)c2ccc(F)cc12 (stereo not drawn) [Example 63] ?
Marked response: 0.1 to 1 µM

Exam item: CN(C)CC#CCn1nc(Nc2cnccc2C(=O)O)c2cc(F)ccc21 [Example 49, trifluoroacetic acid salt] ?
Marked response: < 0.1 µM

Exam item: CCn1nc(Nc2cnccc2C(=O)O)c2cc(C)ccc21 [Example 36] ?
Marked response: 0.1 to 1 µM
